// provenance: ChEMBL document CHEMBL1961873

# STUDY_TARGET: Serine/threonine-protein kinase pim-3 (Homo sapiens) (UniProt Q86V86)
# CONDITIONS_USED: at 1 µM
# Description: GSK_PKIS: PIM3 mean inhibition at 1 uM [Nanosyn]
Assign inhibition to each entry below.
Numbers only, in %.

INSERT INTO assay_data (compound, study_target, readout_kind, reported_result) VALUES
  ('COc1cc2ncn(-c3cc(OCc4cccs4)c(C(N)=O)s3)c2cc1OC', 'Serine/threonine-protein kinase pim-3 (Homo sapiens) (UniProt Q86V86)', 'inhibition', 8.26),
  ('CN(C)CCCNc1nccc(-c2c(-c3ccc(F)cc3)nn3cc(C(F)(F)F)ccc23)n1', 'Serine/threonine-protein kinase pim-3 (Homo sapiens) (UniProt Q86V86)', 'inhibition', -0.57),
  ('O=C(Nc1n[nH]c2cc(-c3cc(F)ccc3F)ccc12)C1CC1', 'Serine/threonine-protein kinase pim-3 (Homo sapiens) (UniProt Q86V86)', 'inhibition', -1.66);

Field: inhibition. Fill in for each record below.
1. C/C(Nc1ccc(S(N)(=O)=O)cc1)=C1/C(=O)Nc2ccccc21
2. CCc1cccc(CC)c1/C=C/c1cncc(C(=O)NC)c1
3. O=C(Nc1ccc(Oc2ccc3[nH]c(NC(=O)c4ccccc4)nc3c2)cc1)Nc1cc(C(F)(F)F)ccc1F
4. N#Cc1ccc(Oc2nccc(-c3c(-c4ccc(F)cc4)ncn3C3CCNCC3)n2)cc1

A:
[1.7, -2.15, -0.27, 0.8]
